cell viability overview
Tested on: NOMO1
TEST_DETAILS: cell viability relative to DMSO control; higher = less cytotoxic
RUN_PARAMETERS: RPMI 5 mM glucose + 10% FBS; 48 h; 0.19 µM
Note: unit % is implicit; provide only the numeric part.

Consider the reported cell viability for these compounds:
COMPOUND: N#Cc1ccnc(N2C(=O)CC[C@H]2C(=O)N(c2cncc(F)c2)[C@H](C(=O)NC2CC(F)(F)C2)c2ccccc2Cl)c1
UNIT_ABBREVIATION: %
cell viability: 92

COMPOUND: O=[S+]([O-])(NCCNC/C=C/c1ccc(Br)cc1)c1cccc2cnccc12
UNIT_ABBREVIATION: %
cell viability: 97.6

COMPOUND: CCOC(=O)N[C@@H]1CC[C@@H]2[C@@H](C1)C[C@H]1C(=O)O[C@H](C)[C@H]1[C@H]2/C=C/c1ccc(-c2cccc(F)c2)cn1
UNIT_ABBREVIATION: %
cell viability: 121

COMPOUND: CC(C)(C)C1=CC(=C(NC(=O)C/2=C/NC3=C(C=CC=C3)C2=O)C=C1O)C(C)(C)C
UNIT_ABBREVIATION: %
cell viability: 124

Challenge: Identify measured cell viability obtained with NOMO1 for Nc1nc(NCCNc2ncc(-n3ccnc3)c(-c3ccc(Cl)cc3Cl)n2)ccc1[N+](=O)[O-] .
Response given: 141

Challenge: Identify measured cell viability obtained with NOMO1 for NC(CO)C(=O)NNCc1ccc(O)c(O)c1O (stereo unspecified) .
Response given: 94.1

* * *

cell viability overview
System: SEM cells
TEST_DETAILS: cell viability relative to DMSO control; higher = less cytotoxic
RUN_PARAMETERS: RPMI 5 mM glucose + 10% FBS; 48 h; 0.569 µM

Consider the reported cell viability for these compounds:
COMPOUND: CN1CCC(CC1)=C2C3=C(C=CC=C3)\C=C/C4=C2C=CC=C4
EXPERIMENTAL_ENDPOINT: cell viability
RESULT: 139%
//
COMPOUND: CC(C)(O)C(=O)Nc1ccc([N+](=O)[O-])c(C(F)(F)F)c1
EXPERIMENTAL_ENDPOINT: cell viability
RESULT: 103%
//
COMPOUND: NCCc1ccc(O)c(O)c1
EXPERIMENTAL_ENDPOINT: cell viability
RESULT: 122%
//
COMPOUND: NNc1nncc2ccccc12
EXPERIMENTAL_ENDPOINT: cell viability
RESULT: 156%

Challenge: Identify measured cell viability obtained with SEM cells for O=C(NCc1ccccc1)c1csc(Nc2ccncn2)n1 .
Response given: 67.8%

Challenge: Identify measured cell viability obtained with SEM cells for COc1cc2ncnc(Nc3cccc(Cl)c3)c2cc1OC .
Response given: 50.7%

Challenge: Identify measured cell viability obtained with SEM cells for OC[C@H]1OC(OC2=CC3=C(C(=C2)O)C(=O)\C(=C/O3)C4=CC=C(O)C=C4)[C@H](O)[C@@H](O)[C@@H]1O (stereo not given in full) .
Response given: 89%

* * *

System: P12-Ichikawa
TEST_DETAILS: cell viability relative to DMSO control; higher = less cytotoxic
RUN_PARAMETERS: HPLM + 10% dialyzed FBS; 48 h; 0.000781 µM
cell viability overview
Note: unit % is implicit; provide only the numeric part.

Consider the reported cell viability for these compounds:
COMPOUND: Nc1nc(NCCNc2ncc(-n3ccnc3)c(-c3ccc(Cl)cc3Cl)n2)ccc1[N+](=O)[O-]
ASSAYED_TARGET: P12-Ichikawa
UNIT_ABBREVIATION: %
cell viability: 114

COMPOUND: CCOC(=O)[C@@H](N)CCC(=O)N[C@@H](CSCc1ccccc1)C(=O)N[C@@H](C(=O)OCC)c1ccccc1
ASSAYED_TARGET: P12-Ichikawa
UNIT_ABBREVIATION: %
cell viability: 109

COMPOUND: O=C(NCC1CCOCC1)c1cnc(Nc2ccc(Cl)cc2Cl)nc1C(F)(F)F
ASSAYED_TARGET: P12-Ichikawa
UNIT_ABBREVIATION: %
cell viability: 102

COMPOUND: N[C@@H](Cc1ccc(O)c(O)c1)C(=O)O
ASSAYED_TARGET: P12-Ichikawa
UNIT_ABBREVIATION: %
cell viability: 122

COMPOUND: CS[C@H]1SC[C@@H]2C(=O)N(C)[C@H](C(C)C)C(=O)OC[C@H](NC(=O)c3cnc4ccccc4n3)C(=O)N[C@H](C)C(=O)N(C)[C@H]1C(=O)N(C)[C@H](C(C)C)C(=O)OC[C@H](NC(=O)c1cnc3ccccc3n1)C(=O)N[C@H](C)C(=O)N2C
ASSAYED_TARGET: P12-Ichikawa
UNIT_ABBREVIATION: %
cell viability: 93.5

COMPOUND: CN(C)CCc1c[nH]c2ccc(C[S+](=O)([O-])N3CCCC3)cc12
ASSAYED_TARGET: P12-Ichikawa
UNIT_ABBREVIATION: %
cell viability: 104

COMPOUND: CCCCCN(CCC12CC3CC(CC(C3)C1)C2)C(=O)NCCCc1ccncc1
ASSAYED_TARGET: P12-Ichikawa
UNIT_ABBREVIATION: %
cell viability: 113

COMPOUND: Cc1cnc(Nc2ccc(N3CCN(C)CC3)cc2)nc1Nc1cccc([S+](=O)([O-])NC(C)(C)C)c1
ASSAYED_TARGET: P12-Ichikawa
UNIT_ABBREVIATION: %
cell viability: 133

COMPOUND: Cc1cnc(Nc2ccc(CN3CCOCC3)cc2)nc1Nc1cccc([S+](=O)([O-])NC(C)(C)C)c1
ASSAYED_TARGET: P12-Ichikawa
UNIT_ABBREVIATION: %
cell viability: 80

COMPOUND: CC(C)(C)OC(=O)Nc1ccc(-c2cc(C(=O)NCCCCCCC(=O)NO)no2)cc1
ASSAYED_TARGET: P12-Ichikawa
UNIT_ABBREVIATION: %
cell viability: 90.9

Challenge: Identify measured cell viability obtained with P12-Ichikawa for CC(S)C(=O)NCC(=O)O (stereo unspecified) .
Response given: 106

Challenge: Identify measured cell viability obtained with P12-Ichikawa for CN1CCC(CC1)=C2C3=C(C=CC=C3)\C=C/C4=C2C=CC=C4 .
Response given: 106

Challenge: Identify measured cell viability obtained with P12-Ichikawa for CO[C@@H]1[C@@H](O)[C@H](O)[C@@H](n2c3c(Cl)cccc3c3c4c(c5c6cccc(Cl)c6[nH]c5c32)C(=O)NC4=O)O[C@H]1CO .
Response given: 109

Challenge: Identify measured cell viability obtained with P12-Ichikawa for CCOC(=O)[C@H]1O[C@@H]1C(=O)N[C@@H](CC(C)C)C(=O)NCCC(C)C .
Response given: 123

Challenge: Identify measured cell viability obtained with P12-Ichikawa for COC(=O)Nc1nc2ccc([S+]([O-])c3ccccc3)cc2[nH]1 (stereo unspecified) .
Response given: 109

* * *

cell viability overview
System: NOMO1
TEST_DETAILS: cell viability relative to DMSO control; higher = less cytotoxic
RUN_PARAMETERS: RPMI 5 mM glucose + 10% FBS; 48 h; 0.569 µM
Note: unit % is implicit; provide only the numeric part.

Consider the reported cell viability for these compounds:
COMPOUND_STRING: CCCCc1nc2cc(/C=C/C(=O)NO)ccc2n1CCN(CC)CC
QUANTITATIVE_RESULT: 86.8
//
COMPOUND_STRING: NNc1nncc2ccccc12
QUANTITATIVE_RESULT: 135
//
COMPOUND_STRING: CN(C)CCOc1ccc(/C(=C(/CCCl)c2ccccc2)c2ccccc2)cc1
QUANTITATIVE_RESULT: 115
//
COMPOUND_STRING: CC1=C(/C=C/C(C)=C/C=C/C(C)=C/C(=O)O)C(C)(C)CCC1
QUANTITATIVE_RESULT: 128

Challenge: Report cell viability, nothing else, for this compound: CC(C)(C)C1=CC(=C(NC(=O)C/2=C/NC3=C(C=CC=C3)C2=O)C=C1O)C(C)(C)C
Response given: 121

* * *

Tested on: SEM cells
TEST_DETAILS: cell viability relative to DMSO control; higher = less cytotoxic
RUN_PARAMETERS: HPLM + 10% dialyzed FBS; 48 h; 0.19 µM
EXPERIMENTAL_ENDPOINT: cell viability
Give the value; after it, write the unit.

Consider the reported cell viability for these compounds:
COMPOUND: Cc1ccc(/C=N/NC(=O)c2ccccc2Oc2ccccc2)o1
cell viability: 96.9%
//
COMPOUND: C[C@H](NCc1ccc(OCc2cccc(F)c2)cc1)C(N)=O
cell viability: 76.7%
//
COMPOUND: CCc1cc(-c2n[nH]c(C)c2-c2ccc3c(c2)OCCO3)c(O)cc1O
cell viability: 124%

Challenge: Report cell viability, nothing else, for this compound: C[C@H]1Oc2cc(cnc2N)-c2c(nn(C)c2C#N)CN(C)C(=O)c2ccc(F)cc21
Response given: 126%

Challenge: Report cell viability, nothing else, for this compound: CC/1=C(\CCN2CCC(CC2)C3=NOC4=C3C=CC(=C4)F)C(=O)N/5CCCCC5=N1
Response given: 124%

Challenge: Report cell viability, nothing else, for this compound: Cc1cnc(Nc2ccc(CN3CCOCC3)cc2)nc1Nc1cccc([S+](=O)([O-])NC(C)(C)C)c1
Response given: 39.3%

Challenge: Report cell viability, nothing else, for this compound: COc1cc2c(Nc3ccc(Cl)c(Cl)c3F)ncnc2cc1OC[C@@H]1C[C@@H]2CN(C)C[C@@H]2C1
Response given: 94.5%

Challenge: Report cell viability, nothing else, for this compound: COc1ccc2[nH]cc(CCNC(C)=O)c2c1
Response given: 114%
